Data provenance: patent US20200317802A1

# assayedSystem: T1, recombinant human ADAMTS5 (R&D Systems cat #2198-AD) (human, UniProt Q9UNA0 262-622, limits assumed)
# T1 sequence: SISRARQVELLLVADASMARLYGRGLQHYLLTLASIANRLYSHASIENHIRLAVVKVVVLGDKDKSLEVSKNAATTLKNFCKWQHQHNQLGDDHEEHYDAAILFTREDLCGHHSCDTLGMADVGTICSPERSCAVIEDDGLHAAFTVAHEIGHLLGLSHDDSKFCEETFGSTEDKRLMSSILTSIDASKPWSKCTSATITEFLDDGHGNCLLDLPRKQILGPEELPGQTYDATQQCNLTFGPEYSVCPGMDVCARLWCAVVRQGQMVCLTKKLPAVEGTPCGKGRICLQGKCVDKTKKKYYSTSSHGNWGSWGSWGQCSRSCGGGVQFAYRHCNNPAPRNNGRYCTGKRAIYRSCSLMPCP
# protocolNotes: cell-based or functional assay
measurementLabel: FRET assay vi (U/min), periplasmic extract

The cases that follow already have their FRET assay vi (U/min), periplasmic extract on record.
Nanobody 3D01 (VHH, tagged as tested (anti-Flag detection, IMAC); also called 03D01) VHH: EVQLVESGGGLVQAGGSLRLSCAPSGFTFSPYYMGWFRQAPGKERDFVAAISRSRGTTYYLDSTEGRFTISRDNANDTVYLQMNSLNPEDTAVYYCAAGRSPGDPSRTYLYDYWGQGTLVTVSS; -2
Nanobody 7B11 (VHH, tagged as tested (anti-Flag detection, IMAC); also called 07B11) VHH: EVQLVESGGGLVQPGGSLRLSCAASGSIFSINVMGWYRQAPGKQRELVAAIISGGRTNYADSVKGRFTISRDNSKNTVYLQMNSLRPEDTAVYYCNAEVDAGIYAYGYWGQGTLVTVSS; 2

1: Nanobody 9D10 (VHH) VHH: EVQLVESGGGLVQAGGSLRLSCAASGRALSSSIMGWFRQAPGKEREFVAAITWSGGRAYYADVSDFEKGRFTISRDNGKNTVNLQMKGLKPEDTAVYYCAAALAIPVTMSPHEYPYWGQGTLVTVSS
2: Nanobody 9D09 (VHH) VHH: EVQLVESGGGLVQAGGSLRLSCAASGLTFSSYTMGWFRQAPGQEREFVSAISWNTFTTYYVDSVKDRFTVSRDNAKNTLYLRMNSLKPEDTAVYYCAAAGGSPRQHEPYEYRVWGQGTLVTVSS
Query block: Parameter check: reported FRET assay vi (U/min), periplasmic extract is higher for which label, 1 or 2 ? Please respond with the label that marks your chosen entry.
Result block: 2
(2: 0 U/min, 1: -2 U/min)
